# experiment: Metabolic stability in pooled human liver microsomes incubated for 30 mins by LC-MS analysis
# Type: ADME, Microsome
# measurement_parameters: read-out: Stabilty
Below is a list of entries, each paired with its recorded remaining at 0.5 h value.
Only the number, expressed in %, is required.

Use these answered entries as a reference point.
* CC(=O)NC[C@@H]1OC(=O)N2Cc3cc(-c4ccc(C#N)nc4)c(F)cc3O[C@@H]12 | 106
* CC(=O)NC[C@@H]1OC(=O)N2Cc3cc(Br)c(F)cc3O[C@@H]12 | 93.8

# input for lookup
Exercise: Look at this compound and give its reported remaining at 0.5 h. CC(=O)NC[C@@H]1OC(=O)N2c3cc(F)c(Br)cc3OC[C@@H]12
Key: 110

---

# experiment: AUC (0 to infinity) in BALB/c mouse at 10 mg/kg, po measured upto 24 hrs by LC-MS/MS analysis
# Assay type: ADME, organism-based
# Set-up: route oral, dose 10 mg/kg, time <=24
# measurement_parameters: in vivo
parameter: AUC(0-inf)
Could you write the number and then its unit?

Exercise: Look at this molecule and give its reported AUC(0-inf). CC(=O)NC[C@@H]1OC(=O)N2Cc3cc(-c4ccc(C#N)nc4)c(F)cc3O[C@@H]12
Key: 78700 ng·h/mL

---

# experiment: AUC (0 to infinity) in BALB/c mouse at 1 mg/kg, iv measured upto 24 hrs by LC-MS/MS analysis
# Assay type: ADME, organism-based
# Set-up: route intravenous, dose 1 mg/kg, time <=24
# measurement_parameters: in vivo
parameter: AUC(0-inf) (ng·h/mL)
Only the number, expressed in ng·h/mL, is required.

Exercise: Look at this compound and give its reported AUC(0-inf). CC(=O)NC[C@@H]1OC(=O)N2Cc3cc(-c4ccc(C#N)nc4)c(F)cc3O[C@@H]12
Key: 6160

---

# experiment: AUC (0 to t) in BALB/c mouse at 10 mg/kg, po measured upto 24 hrs by LC-MS/MS analysis
# Format: ADME, organism-based
# Parameters: route oral, dose 10 mg/kg, time <=24
# measurement_parameters: in vivo
parameter: AUC(0-t) at 24 h (ng·h/mL)
Only the number, expressed in ng·h/mL, is required.

Exercise: Look at this compound and give its reported AUC(0-t) at 24 h. CC(=O)NC[C@@H]1OC(=O)N2Cc3cc(-c4ccc(C#N)nc4)c(F)cc3O[C@@H]12
Key: 77600

---

# Test system: Staphylococcus epidermidis
# experiment: Antibacterial activity against methicillin resistant Staphylococcus epidermidis assessed as bacterial growth inhibition after 18 hrs by broth microdilution method
# Type: functional
parameter: MIC (µg/mL)
Only the number, expressed in µg/mL, is required.

* CC(=O)NC[C@@H]1OC(=O)N2Cc3cc(-c4ccc(C#N)nc4)c(F)cc3O[C@@H]12 | 1

# input for lookup
Exercise: Look at this compound and give its reported MIC. CC(=O)NC[C@@H]1OC(=O)N2Cc3cc(-c4ccc(-c5nnn(C)n5)nc4)c(F)cc3O[C@@H]12
Key: 1

---

# experiment: Cmax in BALB/c mouse at 10 mg/kg, po measured upto 24 hrs by LC-MS/MS analysis
# Assay type: ADME, organism-based
# Parameters: route oral, dose 10 mg/kg, time <=24
# measurement_parameters: in vivo
parameter: Cmax (ng/mL)
Only the number, expressed in ng/mL, is required.

Exercise: Look at this molecule and give its reported Cmax. CC(=O)NC[C@@H]1OC(=O)N2Cc3cc(-c4ccc(C#N)nc4)c(F)cc3O[C@@H]12
Key: 10300

---

# experiment: Metabolic stability in CD-1 mouse liver microsomes assessed as substrate remaining in presence of NADPH incubated for 30 mins by LC-MS analysis
# Assay type: ADME, Microsome
# measurement_parameters: read-out: Stabilty
parameter: remaining at 0.5 h (%)
Only the number, expressed in %, is required.

Use these answered entries as a reference point.
• CC(=O)NC[C@@H]1OC(=O)N2Cc3cc(-c4ccc(C#N)nc4)c(F)cc3O[C@@H]12 = 95.5
• CC(=O)NC[C@@H]1OC(=O)N2Cc3cc(Br)c(F)cc3O[C@@H]12 = 105

# input for lookup
Exercise: Look at this molecule and give its reported remaining at 0.5 h. CC(=O)NC[C@@H]1OC(=O)N2c3cc(F)c(Br)cc3OC[C@@H]12
Key: 73.4

---

# experiment: Apparent volume of distribution in BALB/c mouse at 1 mg/kg, iv measured upto 24 hrs by LC-MS/MS analysis
# Format: ADME, organism-based
# measurement_parameters: in vivo, read-out: Vz
parameter: Vd
Could you write the number and then its unit?

Exercise: Look at this compound and give its reported Vd. CC(=O)NC[C@@H]1OC(=O)N2Cc3cc(-c4ccc(C#N)nc4)c(F)cc3O[C@@H]12
Key: 0.762 L/kg

---

# experiment: Elimination half life in BALB/c mouse at 10 mg/kg, po measured upto 24 hrs by LC-MS/MS analysis
# Assay type: ADME, organism-based
# measurement_parameters: in vivo, read-out: beta t1/2 (converted)
parameter: half-life (h)
Only the number, expressed in h, is required.

Exercise: Look at this compound and give its reported half-life. CC(=O)NC[C@@H]1OC(=O)N2Cc3cc(-c4ccc(C#N)nc4)c(F)cc3O[C@@H]12
Key: 3.76

---

# experiment: MRT (0 to infinity) in BALB/c mouse at 1 mg/kg, iv measured upto 24 hrs by LC-MS/MS analysis
# Assay type: ADME, organism-based
# measurement_parameters: in vivo
parameter: MRT inf (h)
Only the number, expressed in h, is required.

Exercise: Look at this molecule and give its reported MRT inf. CC(=O)NC[C@@H]1OC(=O)N2Cc3cc(-c4ccc(C#N)nc4)c(F)cc3O[C@@H]12
Key: 4.71

---

Below is a list of entries, each paired with its recorded remaining at 0.5 h value.
# experiment: Metabolic stability in CD-1 mouse liver microsomes incubated for 30 mins by LC-MS analysis
# Format: ADME, Microsome
# measurement_parameters: CD-1, mouse, liver microsomes, read-out: Stabilty

- CC(=O)NC[C@@H]1OC(=O)N2Cc3cc(-c4ccc(C#N)nc4)c(F)cc3O[C@@H]12: 108%

# input for lookup
Exercise: Look at this compound and give its reported remaining at 0.5 h. CC(=O)NC[C@@H]1OC(=O)N2Cc3cc(Br)c(F)cc3O[C@@H]12
Key: 102%

---

# experiment: Oral bioavailability in BALB/c mouse at 10 mg/kg measured upto 24 hrs by LC-MS/MS analysis
# Assay type: ADME, organism-based
# measurement_parameters: in vivo
parameter: bioavailability (%)
Only the number, expressed in %, is required.

Exercise: Look at this compound and give its reported bioavailability. CC(=O)NC[C@@H]1OC(=O)N2Cc3cc(-c4ccc(C#N)nc4)c(F)cc3O[C@@H]12
Key: 128

---

# experiment: Inhibition of mitochondrial protein synthesis in […] H9C2 cells after 5 days by ELISA
# Assay type: functional, cell-based
# measurement_parameters: Rattus norvegicus, H9c2, 120 h
parameter: IC50 (nM)
Only the number, expressed in nM, is required.

Exercise: Look at this compound and give its reported IC50. CC(=O)NC[C@@H]1OC(=O)N2Cc3cc(-c4ccc(C#N)nc4)c(F)cc3O[C@@H]12
Key: 1630

---

# experiment: Cmax in BALB/c mouse at 1 mg/kg, iv measured upto 24 hrs by LC-MS/MS analysis
# Type: ADME, organism-based
# Set-up: route intravenous, dose 1 mg/kg, time <=24
# measurement_parameters: in vivo
parameter: Cmax (ng/mL)
Only the number, expressed in ng/mL, is required.

Exercise: Look at this molecule and give its reported Cmax. CC(=O)NC[C@@H]1OC(=O)N2Cc3cc(-c4ccc(C#N)nc4)c(F)cc3O[C@@H]12
Key: 1790

---

# experiment: Metabolic stability in pooled human liver microsomes assessed as substrate remaining in presence of NADPH incubated for 30 mins by LC-MS analysis
# Assay type: ADME, Microsome
# measurement_parameters: read-out: Stabilty
parameter: remaining at 0.5 h (%)
Only the number, expressed in %, is required.

Exercise: Look at this compound and give its reported remaining at 0.5 h. CC(=O)NC[C@@H]1OC(=O)N2Cc3cc(Br)c(F)cc3O[C@@H]12
Key: 111

Exercise: Look at this compound and give its reported remaining at 0.5 h. CC(=O)NC[C@@H]1OC(=O)N2Cc3cc(-c4ccc(C#N)nc4)c(F)cc3O[C@@H]12
Key: 118

Exercise: Look at this compound and give its reported remaining at 0.5 h. CC(=O)NC[C@@H]1OC(=O)N2c3cc(F)c(Br)cc3OC[C@@H]12
Key: 71.4

---

# experiment: AUC (0 to t) in BALB/c mouse at 1 mg/kg, iv measured upto 24 hrs by LC-MS/MS analysis
# Type: ADME, organism-based
# Set-up: route intravenous, dose 1 mg/kg, time <=24
# measurement_parameters: in vivo
parameter: AUC(0-t) at 24 h (ng·h/mL)
Only the number, expressed in ng·h/mL, is required.

Exercise: Look at this molecule and give its reported AUC(0-t) at 24 h. CC(=O)NC[C@@H]1OC(=O)N2Cc3cc(-c4ccc(C#N)nc4)c(F)cc3O[C@@H]12
Key: 6080

Data origin, for the record: ChEMBL document CHEMBL4837188
